Entry source: ChEMBL document CHEMBL1649372

# Test system: Influenza A virus
# assay-notes: Antiviral activity against amantadine-sensitive Influenza A virus A/Hong Kong/8/68 (H3N2) infected in MDCK cells assessed as host cell survival after 72 hrs by CCK8 method
# Type: functional, organism-based
IC50 overview
observed-property: IC50

C[C@@H]1[C@H]2C[C@@H](C[C@H]1/N=C/c1cccc(O)c1)C2(C)C 5.99 µM
NC12CC3CC(CC(C3)C1)C2 21.1 µM
C[C@@H]1[C@H]2C[C@@H](C[C@H]1/N=C/c1ccccc1)C2(C)C 7.78 µM
C[C@@H]1[C@H]2C[C@@H](C[C@H]1NCC1CC1)C2(C)C 28.5 µM
C[C@@H]1[C@H]2C[C@@H](C[C@H]1/N=C/c1ccc(N(C)C)cc1)C2(C)C 38.4 µM
Cc1ccc(/C=N/[C@@H]2C[C@@H]3C[C@H]([C@H]2C)C3(C)C)cc1 13.9 µM
C[C@@H]1[C@H]2C[C@@H](C[C@H]1/N=C/c1ccc(O)cc1)C2(C)C 0.088 µM
C[C@@H]1[C@H]2C[C@@H](C[C@H]1NC1CCCCC1)C2(C)C 43.7 µM
CCN[C@@H]1C[C@@H]2C[C@H]([C@H]1C)C2(C)C > 200 µM
C[C@@H]1[C@H]2C[C@@H](C[C@H]1/N=C/c1ccccc1O)C2(C)C 20.3 µM

###

pIC50 overview
# Tested on: Influenza A virus
# assay-notes: Antiviral activity against amantadine-sensitive Influenza A virus A/Hong Kong/8/68 (H3N2) infected in MDCK cells assessed as host cell survival after 72 hrs by CCK8 method
# Format: functional, organism-based
pIC50: −log10 of the molar value.
observed-property: pIC50

C[C@@H]1[C@H]2C[C@@H](C[C@H]1/N=C/c1ccc(F)cc1)C2(C)C 4.79
CN[C@@H]1C[C@@H]2C[C@H]([C@H]1C)C2(C)C 4.63

###

# Tested on: Influenza A virus
# assay-notes: Antiviral activity against amantadine-sensitive Influenza A virus A/Hong Kong/8/68 (H3N2) infected in MDCK cells assessed as host cell survival after 72 hrs by CCK8 method
# Assay type: functional, organism-based
observed-property: IC50

C[C@@H]1[C@H]2C[C@@H](C[C@H]1NCc1ccc(F)cc1)C2(C)C > 200 µM
C[C@@H]1[C@H]2C[C@@H](C[C@H]1NCc1ccc(O)cc1)C2(C)C > 200 µM
CC(C)N[C@@H]1C[C@@H]2C[C@H]([C@H]1C)C2(C)C > 200 µM
